Consider the following compounds and their measured IC50 readings.
- Tgt: Neurotensin receptor type 2 (Rattus norvegicus)
- Test Details: Antagonist activity at rat NTS2 receptor expressed in CHO-K1 cells assessed as inhibition of SR142948a-induced calcium mobilization by FLIPR assay
Provide a numeric answer, followed by its unit.

Which IC50 reading was recorded for the compound Cc1ccc(S(=O)(=O)Nc2ccc3c(c2)c(C(=O)C(F)(F)F)cn3CC(=O)N[C@@H](CC(C)C)C(=O)O)cc1 ? 38 nM

// below: IC50 requested for another compound
Which IC50 reading was recorded for the compound Cc1ccc(S(=O)(=O)Nc2ccc3c(ccn3CC(=O)N[C@@H](CC(C)C)C(=O)O)c2)cc1 ? 3320 nM

* * *

- Tgt: UniProtKB P20789
- Sequence (P20789 whole entry): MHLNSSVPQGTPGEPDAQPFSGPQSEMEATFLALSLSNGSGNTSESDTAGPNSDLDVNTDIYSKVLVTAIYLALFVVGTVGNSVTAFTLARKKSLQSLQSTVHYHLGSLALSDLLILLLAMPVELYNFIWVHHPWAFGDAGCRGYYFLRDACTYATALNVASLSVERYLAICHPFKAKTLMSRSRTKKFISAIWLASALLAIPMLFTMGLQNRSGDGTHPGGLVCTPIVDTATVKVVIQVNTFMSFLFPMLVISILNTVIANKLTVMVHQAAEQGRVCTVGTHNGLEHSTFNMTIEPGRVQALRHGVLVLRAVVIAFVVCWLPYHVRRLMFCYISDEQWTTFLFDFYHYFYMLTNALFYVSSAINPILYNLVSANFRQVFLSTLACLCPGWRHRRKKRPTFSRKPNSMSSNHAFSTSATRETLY
Outcome Measure: pKi
Scale: negative log10 of molar concentration, which is what pKi denotes.

# returns recorded pKi (system: UniProtKB P20789) for COc1cccc(OC)c1-c1cc(C(=O)NC2(C(=O)O)C3CC4CC(C3)CC2C4)nn1-c1ccc(C(=O)N(C)CCCN(C)C)cc1C(C)C (configuration not stated) 8.85

* * *

Consider the following compounds and their measured Ki readings.
- Tgt: Neurotensin receptor type 2 (Rattus norvegicus)
- Test Details: Displacement of [125I]neurotensin from rat NTS2 receptor expressed in CHO-K1 cells by competitive binding assay
- Assay type: cell-based
// note: answer is a bare numeric in nM

Which Ki reading was recorded for the compound Cc1ccc(S(=O)(=O)Nc2ccc3c(c2)c(C(=O)C(F)(F)F)cn3CC(=O)N[C@@H](CC(C)C)C(=O)O)cc1 ? 202

Others:
Which Ki reading was recorded for the compound COc1cccc(OC)c1-c1cc(C(=O)NC2(C(=O)O)C3CC4CC(C3)CC2C4)nn1-c1ccc(C(=O)N(C)CCCN(C)C)cc1C(C)C (configuration not stated) ? 5.8

* * *

- Tgt: Neurotensin receptor type 2 (Rattus norvegicus, UniProt Q63384)
- Sequence (Q63384 whole entry): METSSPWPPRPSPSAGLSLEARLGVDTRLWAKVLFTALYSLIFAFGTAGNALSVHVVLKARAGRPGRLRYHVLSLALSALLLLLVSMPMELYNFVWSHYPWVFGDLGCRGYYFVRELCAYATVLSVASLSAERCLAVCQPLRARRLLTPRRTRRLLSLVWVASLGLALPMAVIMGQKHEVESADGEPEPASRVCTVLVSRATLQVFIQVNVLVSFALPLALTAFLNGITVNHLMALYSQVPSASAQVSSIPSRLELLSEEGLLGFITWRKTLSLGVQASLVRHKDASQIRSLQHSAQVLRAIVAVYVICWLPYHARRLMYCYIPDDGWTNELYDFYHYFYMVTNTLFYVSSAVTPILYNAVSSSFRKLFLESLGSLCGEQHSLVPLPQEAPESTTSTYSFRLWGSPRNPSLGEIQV
- Test Details: Agonist activity at rat NTS2 receptor expressed in CHO-K1 cells assessed as calcium mobilization by FLIPR assay
- Assay type: functional, cell-based
- Condition Info: read-out: EC50
Outcome Measure: EC50 (nM)
// note: answer is a bare numeric in nM

Which EC50 reading was recorded for the molecule COc1cccc(OC)c1-c1cc(C(=O)NC2(C(=O)O)C3CC4CC(C3)CC2C4)nn1-c1ccc(C(=O)N(C)CCCN(C)C)cc1C(C)C (stereo unspecified) ? 22

Where these numbers come from: ChEMBL document CHEMBL3352657
